Reported IC50 against Vascular endothelial growth factor receptor 2 (Homo sapiens, UniProt P35968), gathered from multiple publications, appears below.

Please review the following examples before continuing.
IN: Using the record for `COc1ccc(-c2cc3nccc(-c4ccc(OC)c(OC)c4OC)c3o2)c(OC)c1OC` , report its IC50.
OUT: 300 to 3000 nM

IN: So what's the measured IC50 for this one? `COc1cc(-c2cc3nccc(Nc4ccc(Sc5nccn5C)c(Cl)c4)c3o2)cc(OC)c1OC`
OUT: 3000 to 50000 nM

IN: // IC50 lookup, key: `O=C(Nc1ccc(Cl)c(C(F)(F)F)c1)Nc1cc(Oc2cc(NC(=O)C3CC3)ncn2)ccc1F`
OUT: 5.4 nM

IN: Item under review: `CS(=O)(=O)Nc1cccc(-c2cnc3[nH]cc(C(=O)c4cccc(NS(=O)(=O)c5cccnc5)c4)c3c2)c1` . Reported IC50?
OUT: ≤ 10000 nM

IN: IC50 lookup needed for `CC(C)C(=O)N[C@H]1[C@@H]2CN(c3ccc(-c4cc(-c5cnn(C)c5)cn5ncc(C#N)c45)cn3)C[C@@H]21` , thanks.
OUT: 10 to 50 nM

Further cases:
IN: Fill in the blank: the reported IC50 of `Nc1ccnc2[nH]cc(C(=O)c3ccccc3)c12` is ____.
OUT: ≤ 10000 nM

IN: Reported IC50, compound `COc1cc2nccc(Oc3ccc(NC(=O)Nc4ccc(Cl)c(C(F)(F)F)c4)cc3F)c2c2c1OCCO2` : ____
OUT: 50 to 500 nM

IN: Entry `O=C(Nc1cccc(OC(F)(F)F)c1)Nc1ccc(Oc2ccnc(NC(=O)C3CC3)c2)c(F)c1` : reported IC50 = ?
OUT: 4.9 nM

IN: Entry `COc1cc(O)cc2c1OC(=O)c1c(O)cc(C)c(O)c1C2` : reported IC50 = ?
OUT: 18000 nM

IN: Query (compound): `CCN(CC)CCCOc1cc2nccc(Oc3ccc(NC(=O)Nc4ccc(F)cc4)cc3)c2cc1C#N` ; field requested: IC50
OUT: 22 nM
